Experimental system: PNMT-IMER (immobilized phenylethanolamine N-methyltransferase) (Bos taurus, UniProt P10938)
Sequence (P10938 whole entry): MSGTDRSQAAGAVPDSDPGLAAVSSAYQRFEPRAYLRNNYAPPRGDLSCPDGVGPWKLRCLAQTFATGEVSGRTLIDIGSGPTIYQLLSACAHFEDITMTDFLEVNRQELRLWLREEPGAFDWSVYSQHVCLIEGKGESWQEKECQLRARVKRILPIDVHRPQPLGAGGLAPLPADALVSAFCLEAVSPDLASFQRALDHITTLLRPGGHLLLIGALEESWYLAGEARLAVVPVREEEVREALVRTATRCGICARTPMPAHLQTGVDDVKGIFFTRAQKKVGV
Value kind: IC50
Answer format: number, then unit.

What IC50 value was documented for this compound, Nc1ncnc2c1ncn2[C@@H]1O[C@H](CSCC[C@H](N)C(=O)O)[C@@H](O)[C@H]1O [SAH, S-adenosyl-L-homocysteine] ?
50.5 µM

###

Experimental system: DBH-Glut-P IMER (immobilized dopamine beta-hydroxylase) (Bos taurus, UniProt P15101)
Construct: purchased
Sequence (P15101 whole entry): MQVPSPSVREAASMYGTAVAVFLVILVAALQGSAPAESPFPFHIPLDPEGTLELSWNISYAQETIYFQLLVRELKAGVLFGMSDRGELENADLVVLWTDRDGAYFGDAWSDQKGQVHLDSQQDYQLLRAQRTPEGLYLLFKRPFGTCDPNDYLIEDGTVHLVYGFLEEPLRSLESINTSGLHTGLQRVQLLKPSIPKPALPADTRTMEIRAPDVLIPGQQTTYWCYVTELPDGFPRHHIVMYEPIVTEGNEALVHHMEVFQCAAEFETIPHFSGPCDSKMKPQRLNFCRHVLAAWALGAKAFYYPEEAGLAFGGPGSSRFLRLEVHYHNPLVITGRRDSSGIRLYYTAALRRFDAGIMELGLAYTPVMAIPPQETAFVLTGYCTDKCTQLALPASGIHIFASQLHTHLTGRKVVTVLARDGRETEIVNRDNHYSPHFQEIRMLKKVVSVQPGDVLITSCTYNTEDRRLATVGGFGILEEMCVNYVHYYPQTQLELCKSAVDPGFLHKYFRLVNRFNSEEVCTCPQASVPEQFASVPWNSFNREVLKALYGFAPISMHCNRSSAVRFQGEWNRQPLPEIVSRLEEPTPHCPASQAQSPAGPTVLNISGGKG
Test details: On-line DBH-Glut-P immobilized enzyme reactor (DBH-Glut-P IMER) HPLC system
Assay type: biochemical, bovine
Experimental setup: on-line injection of substrate/cofactor/inhibitor mixtures; read-out: IC50 DBH-Glut-P IMER
Value kind: pIC50
Note on units: pIC50 is unitless, being -log10 of a concentration expressed in mol/L.

What pIC50 value was documented for this compound, "C[C@H](CS)C(=O)N1CCC[C@H]1C(=O)O" ?
3.92
